Reference source: patent US20130053430A1

Test system: human CETP mRNA
Assay Protocol: Antisense inhibition of human CETP mRNA in SW872 liposarcoma cells (Example 1)
Assay type: cell-based
Recorded Conditions: 150 nM antisense oligonucleotide, lipofectin, ~24 hours, relative to untreated control cells
Strand notation (5' to 3'): a small letter for the sugar, then the base; units joined by * are phosphorothioate-linked, units joined directly phosphodiester-linked; [ ] holds rarer units or linkages, { } end groups; capitals alone tell only the bases. e = 2'-O-(2-methoxyethyl) (MOE); [5mC] = 5-methylcytosine; d = 2'-deoxy (DNA)
Yes means recorded % inhibition is 70% or above; No means it is below 70%.

Here are 3 substances together with their reported answers.
[[record]]
substance = "ISIS 349505: 5-10-5 MOE gapmer CACTACCTCGAGCCGAGACA (e[5mC]*eA*e[5mC]*eT*eA*d[5mC]*d[5mC]*dT*d[5mC]*dG*dA*dG*d[5mC]*d[5mC]*dG*eA*eG*eA*e[5mC]*eA)"
label_class = "No"

[[record]]
substance = "ISIS 349499: 5-10-5 MOE gapmer CCAAGAGGCTTAAGAAGAGC (e[5mC]*e[5mC]*eA*eA*eG*dA*dG*dG*d[5mC]*dT*dT*dA*dA*dG*dA*eA*eG*eA*eG*e[5mC])"
label_class = "No"

[[record]]
substance = "ISIS 349517: 5-10-5 MOE gapmer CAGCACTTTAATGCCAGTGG (sugars from the 5' end e5 d10 e5, backbone and methylation of C not given here)"
label_class = "Yes"


Prompt: API: above_or_equal(metric=% inhibition, cutoff=70%) for item ISIS 349448: 5-10-5 MOE gapmer CCGTATATGTATGTCCGCCC (e[5mC]*e[5mC]*eG*eT*eA*dT*dA*dT*dG*dT*dA*dT*dG*dT*d[5mC]*e[5mC]*eG*e[5mC]*e[5mC]*e[5mC])
Response: No

Prompt: API: above_or_equal(metric=% inhibition, cutoff=70%) for item ISIS 349480: 5-10-5 MOE gapmer TGTCTCCATCTGAAAGGATG (eT*eG*eT*e[5mC]*eT*d[5mC]*d[5mC]*dA*dT*d[5mC]*dT*dG*dA*dA*dA*eG*eG*eA*eT*eG)
Response: Yes

* * *

System: human CETP mRNA
Assay Protocol: Antisense inhibition of human CETP mRNA in SW872 liposarcoma cells (Example 1)
Assay type: cell-based
Recorded Conditions: 150 nM antisense oligonucleotide, lipofectin, ~24 hours, relative to untreated control cells
Strand notation (5' to 3'): a small letter for the sugar, then the base; units joined by * are phosphorothioate-linked, units joined directly phosphodiester-linked; [ ] holds rarer units or linkages, { } end groups; capitals alone tell only the bases. e = 2'-O-(2-methoxyethyl) (MOE); [5mC] = 5-methylcytosine; d = 2'-deoxy (DNA)
% inhibition values by entry

[[record]]
substance = "ISIS 349456: 5-10-5 MOE gapmer TCGTGGTTCAACACCAGGAG (eT*e[5mC]*eG*eT*eG*dG*dT*dT*d[5mC]*dA*dA*d[5mC]*dA*d[5mC]*d[5mC]*eA*eG*eG*eA*eG)"
measured = "68%"

[[record]]
substance = "ISIS 349514: 5-10-5 MOE gapmer ACGCTGGAGGAGACACCAGG (eA*e[5mC]*eG*e[5mC]*eT*dG*dG*dA*dG*dG*dA*dG*dA*d[5mC]*dA*e[5mC]*e[5mC]*eA*eG*eG)"
measured = "71%"


# lookup: ISIS 349509: 5-10-5 MOE gapmer CATCTGCAGCAGCAGGAAGC (e[5mC]*eA*eT*e[5mC]*eT*dG*d[5mC]*dA*dG*d[5mC]*dA*dG*d[5mC]*dA*dG*eG*eA*eA*eG*e[5mC]) on human CETP mRNA, % inhibition = 70%
